B1: Pituitary-specific positive transcription factor 1, residues 130 to 198; numbered along this chain, P28069 (parent)
chain: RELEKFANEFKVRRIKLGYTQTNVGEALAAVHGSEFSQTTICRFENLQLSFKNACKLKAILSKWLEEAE

Variants of: B1
PROTOCOL NOTES: abundance fitness (aPCA) (normalised: wild type 0, dead -1); higher = more abundant; growth selection in yeast, the domain comes from the species named
TEST PARAMETERS: Homo sapiens
Would you mind sorting the entries by abundance fitness according to these classes? bottom end (below -0.6), midrange (-0.6 to below -0.2), top end (-0.2 or more)

INSERT INTO assay_data (seq_text, class_assignment) VALUES
  ('RELEKFANEFKVRRIKLGYTQTNVGEALAAVHGSEFSQTTIRRFENLQLSFKNACKLKAILSKWLEEAE [C42R]', 'top end'),
  ('RELEKFANEFKVRRIKLGYTQTNVGEALAAVHGSEFSQTTICYFENLQLSFKNACKLKAILSKWLEEAE [R43Y]', 'bottom end'),
  ('RELEKFANEFKVRRIKLGYTQTNVGEALAAVHGSEFSQTTICRFENLQLSYKNACKLKAILSKWLEEAE [F51Y]', 'top end'),
  ('RPLEKFANEFKVRRIKLGYTQTNVGEALAAVHGSEFSQTTICRFENLQLSFKNACKLKAILSKWLEEAE [E2P]', 'midrange'),
  ('RELEKFANEFKVRRIKLGYTQTNVGEALAAVHGSEFSQTTICRFENLQLSFKNACKLKAILFKWLEEAE [S62F]', 'top end');

# input Kindly state the category for this variant: RELEKFANEFKVRRIKLGYTQTNVGEALAAVHGSEFSQTTICRFEFLQLSFKNACKLKAILSKWLEEAE [N46F]
# output bottom end

# input Which category fits this record: RELEKFANEFKVRRQKLGYTQTNVGEALAAVHGSEFSQTTICRFENLQLSFKNACKLKAILSKWLEEAE [I15Q]
# output top end

# input Assign a category based on measured abundance fitness for RELEKFANEFKVRRIKLGYTQTNVGEALAAVHGSEFEQTTICRFENLQLSFKNACKLKAILSKWLEEAE [S37E] and give only the class name.
# output midrange

# input // bin(item) where item = RELEKFGNEFKVRRIKLGYTQTNVGEALAAVHGSEFSQTTICRFENLQLSFKNACKLKAILSKWLEEAE [A7G]
# output bottom end

# input Which class holds RELEKFANEFKVRRIKLGYTQTNVGEQLAAVHGSEFSQTTICRFENLQLSFKNACKLKAILSKWLEEAE [A27Q] ?
# output top end

# input Hey, which category is RELEKFANEFKVRRIKLGYTQTNRGEALAAVHGSEFSQTTICRFENLQLSFKNACKLKAILSKWLEEAE [V24R] in, do you know?
# output bottom end

# input Looking at RELEKFANEFKVRRIKLGYTQTNVGEALAAVHGSEFSQTTICRFENLQLSFKEACKLKAILSKWLEEAE [N53E] , which class would you pick?
# output top end

# input Please classify: RELEKFANEFKVRRIKLGYTQTNVGEALAAVHGSEFSQTTICRFENLQLSFKNACKLKAILSKWLEPAE [E67P]
# output bottom end

# input Input RELEKFANEFKVRRIKLGYTQTNVGEALAAVHGSEFSQTTICRFENLQLSFKNACKLKAILSKWLREAE [E66R] ; output its category
# output midrange

Data credit: the Human Domainome abundance scans (Beltran et al. 2025)
